Hello, the source for this data is patent US20230295068A1, in case you need it.

- Tested on: ND3 neuronal cell line
- test: Measurement of nerve growth stimulation effect (neurite bearing assay, neurite length assay, number of cells)
- Type: cell-based
- measurement context: 5 μM compound; ND3 cells, 6 h; relative cell number, DMSO well = 1
Quick rule for you: Number of cells at 0.8 or higher means Fulfilled, lower means Not fulfilled.

COCCCCCCCCCCCCCCCC1=C(C)C(O)CCC1(C)C (stereo not drawn) [Compound 65] = Fulfilled
COCCCCCCCCCCCCCCCC1=C(C)CCCC1(C)C [Compound 64] = Fulfilled
CCOCCCCCCCCCCCCCCC1=C(C)C(=O)CC1(C)C [Compound 73] = Fulfilled
COCCCCCCCCCCCCCCCC1=C(C)C(=O)CC1(C)C [Compound 69] = Not fulfilled

Please tell me: is the compound COCCCCCCCCCCCCCCCC1=C(C(C)C)C(=O)CCC1(C)C [Compound 62] at or over 0.8 in terms of Number of cells? Fulfilled

Please tell me: is the compound COCCCCCCCCCCCCC1=C(C)C(=O)CC1(C)C [Compound 70] at or over 0.8 in terms of Number of cells? Fulfilled

Please tell me: is the compound CCCC1=C(CCCCCCCCCCCCCCCOC)C(C)(C)CCC1=O [Compound 61] at or over 0.8 in terms of Number of cells? Fulfilled

Please tell me: is the compound COCCCCCCCCCCCCCCCC1C(C)C(=O)CCC1(C)C (stereo not drawn) [Compound 63] at or over 0.8 in terms of Number of cells? Fulfilled

Please tell me: is the compound CCCOCCCCCCCCCCCCC1=C(C)C(=O)CC1(C)C [Compound 71] at or over 0.8 in terms of Number of cells? Fulfilled
